assay: AUCt in Wistar rat at 2 mg/kg, iv by LC-MS/MS analysis; type: ADME, organism-based; conditions: in vivo
property_measured: AUC(0-t) (ng·h/mL)
# output: bare number, implied unit ng·h/mL

IN: I'd like to know its AUC(0-t). The compound in question is Cc1cc(C#N)cc(C)c1Oc1nc(NC2CCN(Cc3ccc(C(N)=O)cc3)CC2)nc2c1COC2
OUT: 500

---

pEC50: recorded values
tested on: Human immunodeficiency virus 1; experiment: Antiviral activity against wild type HIV1 3B infected in human MT4 cells assessed as reduction in virus-induced cytopathic effect after 5 days by MTT assay; type: functional, organism-based; conditions: Human immunodeficiency virus 1, 3B, MT4, 120 h
Scale note: pEC50 = -log10(concentration in M).

Solved entries (count: 3):
Cc1cc(C#N)cc(C)c1Oc1nc(NC2CCN(Cc3ccc([N+](=O)[O-])cc3)CC2)nc2c1SCCC2 ... 8.07
Cc1cc(C#N)cc(C)c1Oc1nc(NC2CCN(Cc3ccc(N)cc3)CC2)nc2c1CSC2 ... 8.08
Cc1cc(C#N)cc(C)c1Oc1nc(NC2CCN(Cc3cccc(C(N)=O)c3)CC2)nc2c1SCCC2 ... 8.29

IN: Give recorded pEC50 with Human immunodeficiency virus 1 for the following molecule: Cc1cc(C#N)cc(C)c1Oc1nc(NC2CCN(Cc3ccc(C(N)=O)cc3)CC2)nc2c1CCCC2
OUT: 8.22

IN: Give recorded pEC50 with Human immunodeficiency virus 1 for the following molecule: Cc1cc(C#N)cc(C)c1Oc1nc(NC2CCN(Cc3ccc(C(N)=O)cc3)CC2)nc2c1CCC2
OUT: 8.21

IN: Give recorded pEC50 with Human immunodeficiency virus 1 for the following molecule: Cc1cc(C#N)cc(C)c1Oc1nc(NC2CCN(Cc3ccc(S(C)(=O)=O)cc3)CC2)nc2c1CCC2
OUT: 8.31

---

assay: Aqueous solubility of the compound at pH at 7.4 by HPLC analysis; type: physicochemical; conditions: buffer, pH 7.4
property_measured: solubility (µg/mL)
# output: bare number, implied unit µg/mL

Cc1cc(C#N)cc(C)c1Oc1nc(NC2CCN(Cc3ccc(S(N)(=O)=O)cc3)CC2)nc2c1SCC2 ... 2.54
Cc1cc(C#N)cc(C)c1Oc1nc(NC2CCN(Cc3ccc(S(N)(=O)=O)cc3)CC2)nc2c1COC2 ... 5.68

IN: I'd like to know its solubility. The compound in question is Cc1cc(C#N)cc(C)c1Oc1nc(NC2CCN(Cc3ccc(C(N)=O)cc3)CC2)nc2c1COC2
OUT: 6.59

---

target: Human immunodeficiency virus type 1 reverse transcriptase (Human immunodeficiency virus 1, UniProt Q72547); assay: Inhibition of recombinant HIV1 reverse transcriptase using (DIG)-dUTP and biotin-labeled dNTPs as substrate after 1 hr by ELISA
property_measured: pIC50
Scale note: pIC50 = -log10(concentration in M).

Cc1cc(C#N)cc(C)c1Oc1nc(NC2CCN(Cc3ccc(NS(C)(=O)=O)cc3)CC2)nc2c1CSC2 ... 6.85
Cc1cc(C#N)cc(C)c1Oc1nc(NC2CCN(Cc3ccc(S(N)(=O)=O)cc3)CC2)nc2c1CCCC2 ... 7.08
Cc1cc(C#N)cc(C)c1Oc1nc(NC2CCN(Cc3ccc(C(N)=O)cc3)CC2)nc2c1SCC2 ... 7.18

IN: I'd like to know its pIC50. The molecule in question is Cc1cc(C#N)cc(C)c1Oc1nc(NC2CCN(Cc3ccc(S(N)(=O)=O)cc3)CC2)nc2c1SCC2
OUT: 7.13

IN: I'd like to know its pIC50. The molecule in question is Cc1cc(C#N)cc(C)c1Oc1nc(NC2CCN(Cc3ccc(S(N)(=O)=O)cc3)CC2)nc2c1COC2
OUT: 6.96

IN: I'd like to know its pIC50. The molecule in question is Cc1cc(C#N)cc(C)c1Oc1nc(NC2CCN(Cc3cccc(C(N)=O)c3)CC2)nc2c1COC2
OUT: 7.04

IN: I'd like to know its pIC50. The molecule in question is Cc1cc(C#N)cc(C)c1Oc1nc(NC2CCN(Cc3ccc([N+](=O)[O-])cc3)CC2)nc2c1COC2
OUT: 7.04

IN: I'd like to know its pIC50. The molecule in question is Cc1cc(C#N)cc(C)c1Oc1nc(NC2CCN(Cc3ccc(S(C)(=O)=O)cc3)CC2)nc2c1CSC2
OUT: 7.04

IN: I'd like to know its pIC50. The molecule in question is Cc1cc(C#N)cc(C)c1Oc1nc(NC2CCN(Cc3cccc(C(N)=O)c3)CC2)nc2c1CCCC2
OUT: 7.00

IN: I'd like to know its pIC50. The molecule in question is Cc1cc(C#N)cc(C)c1Oc1nc(NC2CCN(Cc3ccc(S(C)(=O)=O)cc3)CC2)nc2c1COC2
OUT: 7.11

IN: I'd like to know its pIC50. The molecule in question is Cc1cc(C#N)cc(C)c1Oc1nc(NC2CCN(Cc3ccncc3)CC2)nc2c1CCCC2
OUT: 7.14

---

test: Selectivity ratio of CC50 for human MT4 cells to EC50 for HIV1 3B infected in human MT4 cells; assay type: toxicity, cell-based; details: read-out: Ratio CC50/EC50
property_measured: selectivity ratio

Cc1cc(C#N)cc(C)c1Oc1nc(NC2CCN(Cc3ccc([N+](=O)[O-])cc3)CC2)nc2c1CCC2 ... 599
Cc1cc(C#N)cc(C)c1Oc1nc(NC2CCN(Cc3ccc([N+](=O)[O-])cc3)CC2)nc2c1SCCC2 ... 465

IN: I'd like to know its selectivity ratio. The compound in question is Cc1cc(C#N)cc(C)c1Oc1nc(NC2CCN(Cc3cccc(C(N)=O)c3)CC2)nc2c1CCC2
OUT: 124000

IN: I'd like to know its selectivity ratio. The compound in question is Cc1cc(C#N)cc(C)c1Oc1nc(NC2CCN(Cc3ccc(S(C)(=O)=O)cc3)CC2)nc2c1COC2
OUT: 15900

IN: I'd like to know its selectivity ratio. The compound in question is Cc1cc(C#N)cc(C)c1Oc1nc(NC2CCN(Cc3ccncc3)CC2)nc2c1CCCC2
OUT: 8750

IN: I'd like to know its selectivity ratio. The compound in question is Cc1cc(C#N)cc(C)c1Oc1nc(NC2CCN(Cc3ccc(S(N)(=O)=O)cc3)CC2)nc2c1COC2
OUT: 9520

---

IC50: recorded values
biological target: Human immunodeficiency virus type 1 reverse transcriptase (Human immunodeficiency virus 1); assay: Inhibition of recombinant HIV1 reverse transcriptase using (DIG)-dUTP and biotin-labeled dNTPs as substrate after 1 hr by ELISA
# output: bare number, implied unit µM

Solved entries (count: 2):
Cc1cc(C#N)cc(C)c1Oc1nc(NC2CCN(Cc3ccc(S(C)(=O)=O)cc3)CC2)nc2c1CCCC2 ... 0.089
Cc1cc(C#N)cc(C)c1Oc1nc(NC2CCN(Cc3ccc(C(N)=O)cc3)CC2)nc2c1COC2 ... 0.051

IN: I'd like to know its IC50. The molecule in question is Cc1cc(C#N)cc(C)c1Oc1nc(NC2CCN(Cc3ccncc3)CC2)nc2c1CCC2
OUT: 0.073

IN: I'd like to know its IC50. The molecule in question is Cc1cc(C#N)cc(C)c1Oc1nc(NC2CCN(Cc3cccc(C(N)=O)c3)CC2)nc2c1SCC2
OUT: 0.094

---

test system: Human immunodeficiency virus 1; test: Antiviral activity against wild type HIV1 3B infected in human MT4 cells assessed as reduction in virus-induced cytopathic effect after 5 days by MTT assay; format: functional, organism-based; details: Human immunodeficiency virus 1, 3B, MT4, 120 h
pEC50: −log10 of the molar value.
Rule: true for pEC50 not less than 8, false for anything less.

Known results for compounds:
Cc1cc(C#N)cc(C)c1Oc1nc(NC2CCN(Cc3ccncc3)CC2)nc2c1SCC2 ... true
Cc1cc(C#N)cc(C)c1Oc1nc(NC2CCN(Cc3ccc(S(N)(=O)=O)cc3)CC2)nc2c1SCC2 ... true
Cc1cc(C#N)cc(C)c1Oc1nc(NC2CCN(Cc3ccc(C(N)=O)cc3)CC2)nc2c1SCC2 ... true
Cc1cc(C#N)cc(C)c1Oc1nc(NC2CCN(Cc3cccc(C(N)=O)c3)CC2)nc2c1SCC2 ... false
Cc1cc(C#N)cc(C)c1Oc1nc(NC2CCN(Cc3ccc(S(N)(=O)=O)cc3)CC2)nc2c1SCCC2 ... true

# next compound below
IN: Is it the case that Cc1cc(C#N)cc(C)c1Oc1nc(NC2CCN(Cc3ccc(S(N)(=O)=O)cc3)CC2)nc2c1COC2 has pEC50 reaching or exceeding 8?
OUT: true

---

test: Aqueous solubility of the compound at pH at 7.4 by HPLC analysis; type: physicochemical; details: buffer, pH 7.4; read-out: solubility
property_measured: solubility

IN: I'd like to know its solubility. The molecule in question is Cc1cc(C#N)cc(C)c1Oc1nc(Nc2ccc(C#N)cc2)nc(N)c1Br
OUT: < 1 µg/mL
